Property: IC50; scope: individual compounds
- experimental system: JAK1 (Homo sapiens (Human))
- Sequence (P23458 whole entry, species assumed): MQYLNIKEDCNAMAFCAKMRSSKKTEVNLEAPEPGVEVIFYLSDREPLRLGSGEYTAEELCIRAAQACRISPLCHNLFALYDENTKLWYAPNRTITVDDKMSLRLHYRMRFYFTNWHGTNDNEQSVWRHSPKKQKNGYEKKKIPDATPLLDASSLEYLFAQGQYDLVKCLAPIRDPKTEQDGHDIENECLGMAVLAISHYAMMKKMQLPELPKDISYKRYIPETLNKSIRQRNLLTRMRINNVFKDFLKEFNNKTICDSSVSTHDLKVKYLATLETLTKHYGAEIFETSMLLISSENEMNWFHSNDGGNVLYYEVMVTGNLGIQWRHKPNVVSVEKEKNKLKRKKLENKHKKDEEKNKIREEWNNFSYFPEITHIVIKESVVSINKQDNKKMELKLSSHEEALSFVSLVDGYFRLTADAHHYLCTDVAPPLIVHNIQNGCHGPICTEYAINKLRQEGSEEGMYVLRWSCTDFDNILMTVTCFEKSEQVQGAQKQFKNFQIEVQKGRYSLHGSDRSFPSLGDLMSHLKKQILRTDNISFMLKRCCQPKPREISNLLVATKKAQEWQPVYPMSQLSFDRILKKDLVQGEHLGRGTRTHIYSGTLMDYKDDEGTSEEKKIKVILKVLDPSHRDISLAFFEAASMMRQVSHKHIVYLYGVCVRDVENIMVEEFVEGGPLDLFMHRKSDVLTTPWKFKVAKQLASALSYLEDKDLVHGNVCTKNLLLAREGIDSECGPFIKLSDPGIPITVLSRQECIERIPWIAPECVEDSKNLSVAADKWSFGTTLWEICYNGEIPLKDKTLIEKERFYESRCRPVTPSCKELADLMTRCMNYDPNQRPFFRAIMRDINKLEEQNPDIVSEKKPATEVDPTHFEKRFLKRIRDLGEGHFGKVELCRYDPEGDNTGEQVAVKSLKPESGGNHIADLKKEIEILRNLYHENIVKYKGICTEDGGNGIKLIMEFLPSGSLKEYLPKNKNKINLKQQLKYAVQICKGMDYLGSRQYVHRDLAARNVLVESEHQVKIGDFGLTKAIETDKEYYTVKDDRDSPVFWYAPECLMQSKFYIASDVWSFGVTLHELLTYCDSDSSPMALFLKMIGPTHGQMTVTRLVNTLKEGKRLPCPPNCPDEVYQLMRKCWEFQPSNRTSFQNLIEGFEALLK

The following compounds have reported results that may help.
- compound: "Cc1cc(Nc2ncc(C)c(N3CC(CC#N)(N4C[C@H]5CN(C)C[C@H]5C4)C3)n2)sn1 [E104a]"
  test result: "< 100 nM"
- compound: "Cc1cnc(Nc2cnn(C)c2)nc1N1CC(=CC#N)C1 [E174a]"
  test result: "< 100 nM"
- compound: "Cc1cc(Nc2ncc(C)c(N3CC(CC#N)(N4C5CCCC4C5)C3)n2)sn1"
  test result: "< 30 nM"
- compound: "Cc1cc(Nc2ncc(C3CC3)c(N3CC(CC#N)(N4CCCCC4)C3)n2)sn1"
  test result: "< 50 nM"
- compound: "COCCN1CCN(C2(CC#N)CN(c3nc(Nc4cc(C)ns4)ncc3C)C2)CC1"
  test result: "< 10 nM"
- compound: "Cc1cnc(Nc2cnn(C)c2)nc1N1CC(CC#N)(N2CC3(C2)CC3(F)F)C1 [E161a]"
  test result: "< 20 nM"
- compound: "Cc1cc(Nc2ncc(C)c(N3CC(CC#N)(N4CCN(C)C5(COC5)C4)C3)n2)sn1"
  test result: "< 20 nM"

In the following, a different compound is considered.
Param item: Cc1cc(Nc2ncc(C)c(N3CC(CC#N)(N4CCN5CCC[C@H]5C4)C3)n2)sn1 [E62a] ; param system: JAK1 (Homo sapiens (Human)); output IC50: < 50 nM
